# Assay info: Primary qHTS for inhibitors of nuclear receptor binding SET domain protein 2 (NSD2) in an isogenic RCH-ACV NSD2 p.E1099K mutant (9B) (AID 1645876); also: nearly all actives have a fitted effect of over 70% in size
# Condition info: RCH-ACV (leukaemia line) NSD2 E1099K (9B) viability, CellTiter-Glo, 72 h; series mostly up to 44.9 µM
Results filed as inconclusive are left out. The source made the active and inactive calls. Calls follow the shape of the dose curve; as a rule, active = well fitted inhibition curve with a large enough effect; inconclusive = small, poorly fitted or top-dose-only effect; inactive = flat fitted curve, though single readings scatter.
Respond with a class label; see yes (1) for active, no (0) for inactive

Compound	Class assignment
NCC(=O)CCC(=O)O	no (0)
CC(=O)O[C@@]12CO[C@@H]1C[C@H](O)[C@@]1(C)C(=O)[C@H](O)C3=C(C)[C@@H](OC(=O)[C@H](O)[C@@H](NC(=O)OC(C)(C)C)c4ccccc4)C[C@@](O)([C@@H](OC(=O)c4ccccc4)[C@H]21)C3(C)C	yes (1)
C[C@H](NC(CCc1ccccc1)C(=O)O)C(=O)N1CCC[C@H]1C(=O)O (stereo not given in full)	no (0)
CC1(C)[C@@H]2CC[C@@]1(C)C(=O)C2	no (0)
CCC(=O)c1ccc(O)cc1	no (0)
O=C1c2c(O)cccc2Cc2cccc(O)c21	no (0)

Query: How did this test come out for COc1ccc2cc1Oc1cc3c(cc1OC)CC[N+](C)(C)[C@H]3Cc1ccc(cc1)Oc1c(OC)c(OC)cc3c1[C@@H](C2)[N+](C)(C)CC3 ?
Reply: no (0)

Query: How did this test come out for C[C@@H]1CN(c2c(F)c(F)c3c(=O)c(C(=O)O)cn(C4CC4)c3c2F)C[C@H](C)N1 ?
Reply: no (0)

Query: How did this test come out for O=C(O)c1ccccn1 ?
Reply: no (0)

Query: How did this test come out for CC(O)COc1ccccc1 (stereo not given) ?
Reply: no (0)
